Tested on: SKES (type 2, 7/5) cells (Ewing Sarcoma cell line)
test: Cell growth inhibition, modified tetrazolium salt assay (CCK-8 kit), SKES cells
Type: cell-based, human
condition_label: Homo sapiens, 72 h, 3 days with compound at 0.02 to 5 μM, CCK-8, A450, 50% inhibition of cell viability
pIC50: −log10 of the molar value.
readout_kind: pIC50

# example entries with known answers
{"molecule": "NC1(c2ccc(C(=O)CC3(O)C(=O)Nc4c(Cl)ccc(Cl)c43)cc2)CC1 (centres unmarked) [TK Analog 3]", "readout_kind": "pIC50", "reported_result": "> 5.30"}
{"molecule": "O=C(CC1(O)C(=O)Nc2c(Cl)ccc(Cl)c21)c1ccc(C2CC2)nc1 (centres unmarked) [TK Analog 20]", "readout_kind": "pIC50", "reported_result": "< 5.30"}
{"molecule": "O=C(CC1(O)C(=O)Nc2c(Cl)ccc(Cl)c21)c1ccc2ccccc2c1 (centres unmarked) [TK Analog 19]", "readout_kind": "pIC50", "reported_result": "> 5.30"}
{"molecule": "COc1ccc2c(CC3(O)C(=O)Nc4c(Cl)ccc(Cl)c43)nsc2c1 (centres unmarked) [TK Analog 18]", "readout_kind": "pIC50", "reported_result": "> 5.30"}
{"molecule": "C#Cc1ccc(C(=O)CC2(O)C(=O)Nc3c(Cl)ccc(Cl)c32)cc1 (centres unmarked) [TK Analog 5]", "readout_kind": "pIC50", "reported_result": "< 5.30"}

For each entry beneath this line, provide reported pIC50.
1. COc1ccc2c(CC3(O)C(=O)Nc4c(Cl)ccc(Cl)c43)noc2c1 (centres unmarked) [TK Analog 17]
2. O=C(CC1(O)C(=O)Nc2c(Cl)ccc(Cl)c21)c1ccc(OC(F)F)cc1 (centres unmarked) [TK Analog 4]

RESULT:
["< 5.30", "< 5.30"]

Please go through the list and note pIC50 for each molecule.
1. O=C(CC1(O)C(=O)Nc2c(Cl)ccc(Cl)c21)c1ccc(C2CC2)s1 (centres unmarked) [TK Analog 22]
2. CN(C)c1ccc(-c2cc3c(nn2)[nH]c2c(Cl)ccc(Cl)c23)cc1 [TK Analog 14]
3. COc1ccc(C(=O)CC2(O)C(=O)Nc3c(Cl)ccc(Cl)c32)cc1 (centres unmarked) [YK-4-279, reference compound]
4. COc1ccc(C(=O)CC2(N)C(=O)Nc3c(Cl)ccc(Cl)c32)cc1 (centres unmarked) [TK Analog 8]
5. O=C(CC1(O)C(=O)Nc2c(Cl)ccc(Cl)c21)c1ccc(C2CC2)cn1 (centres unmarked) [TK Analog 21]

RESULT:
["> 5.30", "< 5.30", "> 5.30", "> 5.30", "< 5.30"]

Please give pIC50 for each item listed below.
1. O=C(CC1(O)C(=O)Nc2c(Cl)ccc(Cl)c21)c1csc(C2CC2)c1 (centres unmarked) [TK Analog 24]
2. CNC(=O)Oc1ccc(C(=O)CC2(O)C(=O)Nc3c(Cl)ccc(Cl)c32)cc1 (centres unmarked) [TK Analog 13]
3. COc1ccc(C(=O)CC2C(=O)Nc3c(Cl)ccc(Cl)c32)cc1 (centres unmarked) [TK Analog 6]
4. O=C(CC1(O)C(=O)Nc2c(Cl)ccc(Cl)c21)c1ccc2[nH]ccc2c1 (centres unmarked) [TK Analog 11]
5. COc1ccc2c(cnn2CC2(O)C(=O)Nc3c(Cl)ccc(Cl)c32)c1 (centres unmarked) [TK Analog 16]

RESULT:
["< 5.30", "< 5.30", "> 5.30", "> 5.30", "> 5.30"]
